Quick reference for cell viability among some molecules
# Tested on: MARIMO
# measurement-protocol: cell viability relative to vehicle control; higher = less cytotoxic;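 note: after 48 h exposure read by CellTiter-Glo luminescence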
# stated-conditions: 10 µM; SRSF2 genotype: SRSF2 P95H/wt
Your answer is read as %, so omit the unit and give the number.

{"molecule": "CC1=CCC(=C(C)C)C(=O)CC(C)=CCC1 [Germacrone]", "cell viability (%)": 107}
{"molecule": "O=C1CCc2c(ccc3ccccc23)O1 [Splitomicin]", "cell viability (%)": 103}
{"molecule": "Cc1noc(-c2ccc(CSCCC(=O)O)cc2)c1NC(=O)OC(C)c1ccccc1Cl (stereo unspecified)", "cell viability (%)": 101}
{"molecule": "CCOC(=O)c1[nH]c2cc(Cl)ccc2c1C(C(=O)NC(C)(C)C)N(C=O)Cc1ccc(Cl)cc1 (stereo unspecified)", "cell viability (%)": 68.1}
{"molecule": "NS(=O)(=O)Cc1noc2ccccc12 [Zonisamide]", "cell viability (%)": 85}

Incoming: Param readout = cell viability; param system = MARIMO; param query = Nc1ccc(C(=O)O)c(O)c1 [Sodium 4-Aminosalicylate] ; response: value
Outgoing: 85.7

Incoming: Now give it for O=C(/C=C/c1ccc(O[C@@H]2O[C@H](CO)[C@@H](O)[C@H](O)[C@H]2O)cc1)c1ccc(O)cc1O [Isoliquiritin] too.
Outgoing: 103

Incoming: Now give it for COc1ccc(-c2oc3c(CC=C(C)C)c(O)cc(O)c3c(=O)c2O[C@@H]2O[C@@H](C)[C@H](O)[C@@H](O)[C@H]2O)cc1 [Baohuoside I] too.
Outgoing: 94.6

###

# Tested on: K562
# measurement-protocol: cell viability relative to vehicle control; higher = less cytotoxic
# stated-conditions: 10 µM; SRSF2 genotype: SRSF2 wt/wt
Where a name gives a salt, the structure may show the parent alone.
Quick reference for cell viability among some molecules
Your answer is read as %, so omit the unit and give the number.

In the examples that follow, each entry is paired with its recorded cell viability.
{"molecule": "O=C1[C@H]2CCCC[C@H]2C(=O)N1CCCCN1CCN(c2nsc3ccccc23)CC1 [Perospirone hydrochloride]", "result-unit": "%", "cell viability": 73.6}
{"molecule": "CCc1ccc(OCc2ccccc2C(=O)Nc2ccc3nc(C)cc(N)c3c2)cc1", "result-unit": "%", "cell viability": 0.47}
{"molecule": "Cn1c(=O)cc(N2CCC[C@@H](N)C2)n(Cc2ccccc2C#N)c1=O", "result-unit": "%", "cell viability": 88.7}
{"molecule": "COc1cccc(-c2cc(F)ccc2C2Cc3nc(N)nc(C)c3C(=O)N2)n1 (stereo not drawn)", "result-unit": "%", "cell viability": 24}
{"molecule": "C[C@]12CC[C@@H]3c4ccc(O)cc4CC[C@H]3[C@@H]1CC[C@@H]2O", "result-unit": "%", "cell viability": 93.8}

As a next step, examine the molecule that follows.
Incoming: // query cell viability value for entry C[N+]1(C)[C@@H]2CC[C@H]1C[C@@H](OC(=O)C(O)c1ccccc1)C2 (stereo partly drawn) [Homatropine Methylbromide]
Outgoing: 101

###

# Tested on: MOLM14
# measurement-protocol: cell viability relative to vehicle control; higher = less cytotoxic
# stated-conditions: 10 µM; SRSF2 genotype: SRSF2 wt/wt
Structures can show the parent of a compound that is named as a salt.
measured-metric: cell viability (%)
Your answer is read as %, so omit the unit and give the number.

Incoming: // query cell viability value for entry C[N+](C)(C)CC(O)CC(=O)[O-] (racemic) [DL-Carnitine hydrochloride]
Outgoing: 103

Incoming: Now give it for CCCCCCCCCCCCCCCCCCCCCC(=O)O [Behenic Acid] too.
Outgoing: 108

Incoming: Now give it for O=C(Nc1ccc(-c2ccnc(Nc3ccc(N4CCOCC4)cc3)n2)cc1)C1CCCN1 (stereo not given) too.
Outgoing: 22.4

Incoming: Now give it for COc1ccc(NC(=O)c2ccc(C(=N)N(C)C)cc2)c(C(=O)Nc2ccc(Cl)cn2)c1 [Betrixaban maleate] too.
Outgoing: 102

Incoming: Now give it for CC(=O)O[C@@]12CO[C@@H]1C[C@H](O)[C@@]1(C)C(=O)[C@H](O)C3=C(C)[C@@H](OC(=O)[C@H](O)[C@@H](NC(=O)OC(C)(C)C)c4ccccc4)C[C@@](O)([C@@H](OC(=O)c4ccccc4)[C@H]21)C3(C)C [Docetaxel Trihydrate] too.
Outgoing: 4.2
